Species on record: Mus musculus
assay notes: Inhibition of Inhibition of F1F0-ATP synthase subunit C in SV129 mouse liver mitochondria assessed as reduction of Ca2+ induced mPTP opening by measuring reduction in mitochondrial swelling at 1 uM measured after 10 mins relative to control
Calls of active or inactive are those of the source. The calls are words filed in the database; no cut-off is given here.
endpoint label: inhibition

{"smiles structure": "O=C1N=CN(c2ccc(Cl)cc2)C12CCN(Cc1ccccc1)CC2", "endpoint label": "inhibition", "recorded value": "Active"}
{"smiles structure": "O=C1NCN(c2cccc(C(F)(F)F)c2)C12CCN(Cc1ccccc1)CC2", "endpoint label": "inhibition", "recorded value": "Active"}
{"smiles structure": "O=C1NCN(c2ccccc2)C12CCN(S(=O)(=O)c1ccc(Cl)s1)CC2", "endpoint label": "inhibition", "recorded value": "Active"}
{"smiles structure": "Cc1ccc(S(=O)(=O)N2CCC3(CC2)C(=O)NCN3c2ccccc2)cc1", "endpoint label": "inhibition", "recorded value": "Active"}
